target_entity: MRFAP1
assay_info: reporter assay of Huesken 2005
experimental_setup: siRNA
Oligonucleotides are written 5' to 3', each unit as a sugar letter and its base; * is a phosphorothioate linkage, no mark a phosphodiester; rarer units and linkages stand in square brackets, end groups in braces. Plain capitals give the bases only. d = 2'-deoxy (DNA); r = 2'-OH (RNA)
The label depends only on normalised inhibition (eCFP-eYFP dual reporter): criterion met if it is at least 70%, criterion not met if it is smaller.

Say whether sense rArCrUrUrCrGrArGrCrArGrUrUrUrCrUrGrCrUdTdT / antisense rArGrCrArGrArArArCrUrGrCrUrCrGrArArGrUdCdC shows normalised inhibition (eCFP-eYFP dual reporter) of 70% or more.
criterion not met

Another substance: sense rCrUrUrGrCrArArUrArCrCrCrUrUrUrGrUrGrUdTdT / antisense rArCrArCrArArArGrGrGrUrArUrUrGrCrArArGdGdA
criterion met

And then sense rGrCrUrGrArArArCrCrArGrArGrArGrCrCrUrUdTdT / antisense rArArGrGrCrUrCrUrCrUrGrGrUrUrUrCrArGrCdTdT , what is it?
criterion met

And the next one, sense rGrGrCrArArGrCrUrGrUrGrGrGrArGrArUrGrGdTdT / antisense rCrCrArUrCrUrCrCrCrArCrArGrCrUrUrGrCrCdCdC ?
criterion met

How about this substance: sense rUrCrArCrCrGrCrCrUrCrUrGrArArArGrUrUrCdTdT / antisense rGrArArCrUrUrUrCrArGrArGrGrCrGrGrUrGrAdGdC
criterion not met

Now the same for sense rArArGrCrArGrCrGrGrArGrArUrGrCrGrGrCrCdTdT / antisense rGrGrCrCrGrCrArUrCrUrCrCrGrCrUrGrCrUrUdTdG
criterion not met

Now consider sense rCrCrUrGrCrArGrGrGrCrGrCrGrGrGrCrGrGrCdTdT / antisense rGrCrCrGrCrCrCrGrCrGrCrCrCrUrGrCrArGrGdTdG and answer again.
criterion not met

Would you mind doing sense rGrUrGrUrGrArGrArCrCrArArArGrGrArGrGrAdTdT / antisense rUrCrCrUrCrCrUrUrUrGrGrUrCrUrCrArCrArCdAdG as well?
criterion met

Would you kindly repeat that for sense rCrArArGrArCrGrCrArGrGrUrArGrArGrGrCrCdTdT / antisense rGrGrCrCrUrCrUrArCrCrUrGrCrGrUrCrUrUrGdAdT ?
criterion met

Same lookup for sense rUrCrGrUrGrCrGrGrCrGrGrArUrArGrArGrArAdTdT / antisense rUrUrCrUrCrUrArUrCrCrGrCrCrGrCrArCrGrAdGdC , please.
criterion met

Cool, now sense rUrUrUrGrArGrGrUrCrArArArArCrCrCrUrUrAdTdT / antisense rUrArArGrGrGrUrUrUrUrGrArCrCrUrCrArArAdTdG
criterion met

Similarly, sense rGrArArCrArGrCrGrGrCrGrGrArArGrUrUrUrUdTdT / antisense rArArArArCrUrUrCrCrGrCrCrGrCrUrGrUrUrCdCdA ?
criterion met

Now this one: sense rArArCrCrUrGrCrCrUrGrArUrGrArGrUrUrUrGdTdT / antisense rCrArArArCrUrCrArUrCrArGrGrCrArGrGrUrUdAdT
criterion not met

Next substance up: sense rUrUrGrGrCrUrGrArCrArUrGrArCrArCrCrCrUdTdT / antisense rArGrGrGrUrGrUrCrArUrGrUrCrArGrCrCrArAdTdC
criterion not met

And the next one, sense rArUrCrCrUrUrGrCrArArUrArCrCrCrUrUrUrGdTdT / antisense rCrArArArGrGrGrUrArUrUrGrCrArArGrGrArUdCdT ?
criterion not met

And what about the substance sense rGrArCrUrUrCrArUrCrUrGrGrGrArCrUrGrUrGdTdT / antisense rCrArCrArGrUrCrCrCrArGrArUrGrArArGrUrCdTdG ?
criterion met

Proceed to sense rGrGrArCrArGrCrCrUrArArCrUrCrArUrUrUrUdTdT / antisense rArArArArUrGrArGrUrUrArGrGrCrUrGrUrCrCdCdA
criterion not met

Entry to check: sense rCrUrGrArCrArCrUrArCrGrUrUrUrCrUrGrCrUdTdT / antisense rArGrCrArGrArArArCrGrUrArGrUrGrUrCrArGdTdG
criterion met

Then sense rCrUrGrArGrArCrUrUrGrGrArGrUrUrGrGrArGdTdT / antisense rCrUrCrCrArArCrUrCrCrArArGrUrCrUrCrArGdTdG ?
criterion met

Now the same for sense rArArGrArUrGrGrCrCrGrArGrArUrGrCrUrGrGdTdT / antisense rCrCrArGrCrArUrCrUrCrGrGrCrCrArUrCrUrUdCdG
criterion not met

Another: sense rUrCrCrUrGrGrCrUrUrUrGrGrUrGrUrGrUrUrCdTdT / antisense rGrArArCrArCrArCrCrArArArGrCrCrArGrGrAdAdT
criterion not met

Another substance to look at: sense rGrGrUrGrCrArGrCrUrCrGrUrGrCrGrGrCrGrGdTdT / antisense rCrCrGrCrCrGrCrArCrGrArGrCrUrGrCrArCrCdAdG
criterion met

Ok, now sense rCrArArArGrGrArGrGrArGrArGrArUrGrUrArUdTdT / antisense rArUrArCrArUrCrUrCrUrCrCrUrCrCrUrUrUrGdGdT
criterion met

* * *

target_entity: UBE2K
assay_info: reporter assay of Huesken 2005
experimental_setup: siRNA
Oligonucleotides are given in HELM: sugar(base)linkage, 5' to 3'; d 2'-deoxyribose, r ribose, m 2'-O-methylribose, p phosphate. ss, as = sense and antisense strand
readout_name: normalised inhibition (eCFP-eYFP dual reporter)
Include the unit right after the number.

Any idea what normalised inhibition (eCFP-eYFP dual reporter) came out for RNA1{r(G)p.r(G)p.r(C)p.r(A)p.r(G)p.r(C)p.r(U)p.r(G)p.r(C)p.r(A)p.r(G)p.r(A)p.r(G)p.r(C)p.r(C)p.r(A)p.r(G)p.r(A)p.r(U)p.d(T)p.d(T)}|RNA2{r(A)p.r(U)p.r(C)p.r(U)p.r(G)p.r(G)p.r(C)p.r(U)p.r(C)p.r(U)p.r(G)p.r(C)p.r(A)p.r(G)p.r(C)p.r(U)p.r(G)p.r(C)p.r(C)p.d(A)p.d(A)}$$$RNA1{StrandType:ss}|RNA2{StrandType:as}$ on UBE2K?
81.8%

Param item: RNA1{r(C)p.r(U)p.r(G)p.r(A)p.r(A)p.r(A)p.r(G)p.r(A)p.r(U)p.r(C)p.r(A)p.r(A)p.r(U)p.r(G)p.r(G)p.r(G)p.r(C)p.r(A)p.r(G)p.d(T)p.d(T)}|RNA2{r(C)p.r(U)p.r(G)p.r(C)p.r(C)p.r(C)p.r(A)p.r(U)p.r(U)p.r(G)p.r(A)p.r(U)p.r(C)p.r(U)p.r(U)p.r(U)p.r(C)p.r(A)p.r(G)p.d(G)p.d(A)}$$$RNA1{StrandType:ss}|RNA2{StrandType:as}$
79.2%

Try this substance too: RNA1{r(A)p.r(C)p.r(A)p.r(G)p.r(G)p.r(A)p.r(U)p.r(G)p.r(C)p.r(U)p.r(G)p.r(U)p.r(A)p.r(G)p.r(U)p.r(A)p.r(G)p.r(C)p.r(A)p.d(T)p.d(T)}|RNA2{r(U)p.r(G)p.r(C)p.r(U)p.r(A)p.r(C)p.r(U)p.r(A)p.r(C)p.r(A)p.r(G)p.r(C)p.r(A)p.r(U)p.r(C)p.r(C)p.r(U)p.r(G)p.r(U)p.d(G)p.d(G)}$$$RNA1{StrandType:ss}|RNA2{StrandType:as}$
89.9%

Try this substance too: RNA1{r(U)p.r(C)p.r(C)p.r(G)p.r(G)p.r(U)p.r(U)p.r(U)p.r(A)p.r(U)p.r(C)p.r(A)p.r(C)p.r(U)p.r(A)p.r(A)p.r(A)p.r(A)p.r(U)p.d(T)p.d(T)}|RNA2{r(A)p.r(U)p.r(U)p.r(U)p.r(U)p.r(A)p.r(G)p.r(U)p.r(G)p.r(A)p.r(U)p.r(A)p.r(A)p.r(A)p.r(C)p.r(C)p.r(G)p.r(G)p.r(A)p.d(C)p.d(C)}$$$RNA1{StrandType:ss}|RNA2{StrandType:as}$
73%

How about this substance: RNA1{r(A)p.r(U)p.r(U)p.r(A)p.r(A)p.r(A)p.r(G)p.r(U)p.r(A)p.r(G)p.r(A)p.r(U)p.r(C)p.r(U)p.r(U)p.r(G)p.r(U)p.r(A)p.r(G)p.d(T)p.d(T)}|RNA2{r(C)p.r(U)p.r(A)p.r(C)p.r(A)p.r(A)p.r(G)p.r(A)p.r(U)p.r(C)p.r(U)p.r(A)p.r(C)p.r(U)p.r(U)p.r(U)p.r(A)p.r(A)p.r(U)p.d(T)p.d(T)}$$$RNA1{StrandType:ss}|RNA2{StrandType:as}$
45.8%
